molecular target: Proto-oncogene tyrosine-protein kinase Src (Homo sapiens)
Sequence (P12931 2-536 limits assumed): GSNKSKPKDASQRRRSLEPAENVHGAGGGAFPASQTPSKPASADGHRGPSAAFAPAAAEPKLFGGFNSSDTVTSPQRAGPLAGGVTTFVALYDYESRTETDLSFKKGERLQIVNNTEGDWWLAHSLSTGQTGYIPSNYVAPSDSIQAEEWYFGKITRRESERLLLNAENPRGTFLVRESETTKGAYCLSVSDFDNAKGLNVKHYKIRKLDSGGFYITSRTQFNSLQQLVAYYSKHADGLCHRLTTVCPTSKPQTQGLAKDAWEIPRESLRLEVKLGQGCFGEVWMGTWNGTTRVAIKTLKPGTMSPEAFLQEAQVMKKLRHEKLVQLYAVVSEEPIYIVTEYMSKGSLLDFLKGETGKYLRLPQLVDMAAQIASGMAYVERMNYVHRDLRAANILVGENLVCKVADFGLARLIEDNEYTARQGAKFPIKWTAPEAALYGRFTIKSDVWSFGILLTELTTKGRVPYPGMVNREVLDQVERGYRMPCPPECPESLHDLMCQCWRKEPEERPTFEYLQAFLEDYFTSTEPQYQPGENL
pIC50: −log10 of the molar value.

# structure, pIC50
measured = [
    ("COc1cc(Nc2c(C#N)cnc3cc(-c4ccccc4CN4CCN(C)CC4)sc23)c(Cl)cc1Cl", "< 5.00"),
]
